Where these numbers come from: the supplement of paper PMC5722580

- System: NK-92
- Experiment: drug sensitivity score (viability inhibition); higher = more sensitive
- Condition Summary: 72 h; IL2 2.5 ng/ml
Answer each item with its documented drug sensitivity score.
Give bare numbers, in DSS.

Consider the following illustrative entries.
>>> numeric_readout("CNC(=O)c1cc(Oc2ccc(NC(=O)Nc3ccc(Cl)c(C(F)(F)F)c3)c(F)c2)ccn1")
8.97
>>> numeric_readout("COc1ccccc1S(=O)(=O)Nc1ccc2c(c1)CN(C)C(=O)N2")
0.03
>>> numeric_readout("FC(F)c1nc2ccccc2n1-c1nc(N2CCOCC2)nc(N2CCOCC2)n1")
12.8
>>> numeric_readout("NS(=O)(=O)c1cccc2c1C(=O)c1cccc(O)c1C2=O")
23.1
>>> numeric_readout("COc1cc2c(cc1-c1c(C)noc1C)ncc1[nH]c(=O)n([C@H](C)c3ccccn3)c12")
1.34

Dear reader, for each entry below, please note its drug sensitivity score.
1. CO[C@H]1C[C@@H]2CC[C@@H](C)[C@@](O)(O2)C(=O)C(=O)N2CCCC[C@H]2C(=O)O[C@H]([C@H](C)C[C@@H]2CC[C@@H](OC(=O)C(C)(CO)CO)[C@H](OC)C2)CC(=O)[C@H](C)/C=C(\C)[C@@H](O)[C@@H](OC)C(=O)[C@H](C)C[C@H](C)/C=C/C=C/C=C/1C
2. CC1(COc2ccc3c(c2)ncn3-c2ccc3cccc(N4CCC(N)CC4)c3n2)COC1
3. C[C@@H]1CC(=O)c2c(ccc3c2C(=O)c2cccc(O)c2C3=O)C1
4. CNC(=O)c1cc(Oc2ccc(NC(=O)Nc3ccc(Cl)c(C(F)(F)F)c3)cc2)ccn1
5. C#Cc1cccc(Nc2ncnc3cc4c(cc23)OCCOCCOCCO4)c1
6. Cc1cc(Nc2nc(N[C@@H](C)c3ncc(F)cn3)ncc2Cl)[nH]n1
7. COc1ncc(-c2ccc3nccc(-c4ccnnc4)c3c2)cc1NS(=O)(=O)c1ccc(F)cc1F
8. CCNC(=O)c1noc(-c2cc(C(C)C)c(O)cc2O)c1-c1ccc(CN2CCOCC2)cc1

## Result
1. 4.18
2. 9.79
3. 4.92
4. 0.365
5. 2.41
6. 7.65
7. 11.6
8. 27.4

###

Answer each item with its documented drug sensitivity score.
- Test system: NK-92
- Experiment: drug sensitivity score (viability inhibition); higher = more sensitive
- Condition Summary: 72 h; IL2 2.5 ng/ml

Consider the following illustrative entries.
>>> result("CN(C)C[C@@H]1CCn2cc(c3ccccc32)C2=C(C(=O)NC2=O)c2cn(c3ccccc23)CCO1")
"4.64 DSS"
>>> result("C[C@]12C=CC(=O)C=C1CC[C@@H]1[C@@H]2[C@@H](O)C[C@@]2(C)[C@H]1CC[C@]2(O)C(=O)CO")
"0 DSS"
>>> result("N#C/C(=C\\c1ccc(O)c(O)c1)C(=O)NCc1ccccc1")
"9.21 DSS"
>>> result("C[C@@H]1C=C2C(=O)O[C@@H]3CC[C@H](C1)[C@]23O")
"3.98 DSS"
>>> result("CC[C@H](Nc1ncnc2[nH]cnc12)c1nc2cccc(F)c2c(=O)n1-c1ccccc1")
"9.76 DSS"
>>> result("CC(=O)OC[C@H]1O[C@@H]([S-])[C@H](OC(C)=O)[C@@H](OC(C)=O)[C@@H]1OC(C)=O.CCP(CC)CC.[Au+]")
"4.86 DSS"
>>> result("C[C@H]1C[C@@H]2[C@H]([C@@H](O)C[C@@]3(C)[C@H]2CC[C@]3(O)C(=O)CO)[C@@]2(C)C=CC(=O)C=C12")
"0 DSS"
>>> result("C[C@]12O[C@H](C[C@]1(O)CO)n1c3ccccc3c3c4c(c5c6ccccc6n2c5c31)CNC4=O")
"14.3 DSS"
>>> result("CC1(C)CCC(CN2CCN(c3ccc(C(=O)NS(=O)(=O)c4ccc(NCC5CCOCC5)c([N+](=O)[O-])c4)c(Oc4cnc5[nH]ccc5c4)c3)CC2)=C(c2ccc(Cl)cc2)C1")
"3.59 DSS"
>>> result("COc1ccc(-c2ccc3c(N4CCOC[C@@H]4C)nc(N4CCOC[C@@H]4C)nc3n2)cc1CO")
"16.3 DSS"

Dear reader, for each entry below, please note its drug sensitivity score.
1. Cn1c(=O)n(-c2ccc(C(C)(C)C#N)cc2)c2c3cc(-c4cnc5ccccc5c4)ccc3ncc21
2. Cc1c2oc3c(C)ccc(C(=O)N[C@@H]4C(=O)N[C@H](C(C)C)C(=O)N5CCC[C@H]5C(=O)N(C)CC(=O)N(C)[C@@H](C(C)C)C(=O)O[C@@H]4C)c3nc-2c(C(=O)N[C@@H]2C(=O)N[C@H](C(C)C)C(=O)N3CCC[C@H]3C(=O)N(C)CC(=O)N(C)[C@@H](C(C)C)C(=O)O[C@@H]2C)c(N)c1=O
3. N#CC[C@H](C1CCCC1)n1cc(-c2ncnc3[nH]ccc23)cn1

## Result
12 DSS
16.5 DSS
21.8 DSS
